Please respond with reported Ki for every item in the list.
- target under test: LHRH rat pituitary receptor (Rattus norvegicus)
- Construct: from tissue; host or cells: rat pituitary
- Sequence (P30969 1-327): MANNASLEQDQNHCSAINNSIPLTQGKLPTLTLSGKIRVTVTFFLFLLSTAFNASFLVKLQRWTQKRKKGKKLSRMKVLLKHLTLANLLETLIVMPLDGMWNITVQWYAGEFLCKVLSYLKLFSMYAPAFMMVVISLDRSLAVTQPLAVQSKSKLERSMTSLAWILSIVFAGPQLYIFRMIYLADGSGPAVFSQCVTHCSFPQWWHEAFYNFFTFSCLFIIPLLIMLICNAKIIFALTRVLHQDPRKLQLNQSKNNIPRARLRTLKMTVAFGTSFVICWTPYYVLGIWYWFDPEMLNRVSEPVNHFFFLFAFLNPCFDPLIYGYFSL
- assay info: LHRH rat pituitary receptor binding (pKI)
- condition label: negative logarithm of the equilibrium dissociation constants, Table 1, read-out: receptor binding affinity (pKI) (converted)
- Protocol: Representative compounds of the present invention were evaluated in in vitro tests for LHRH rat pituitary receptor binding (pKI) and for LH inhibition from rat pituitary cells for antagonist potency (pA2). The tests employed the methods detailed in F. Haviv, et al. J. Med. Chem., 32: 2340-2344 (1989). The receptor binding affinity (pKI) is the negative logarithm of the equilibrium dissociation constants.
Answers are plain numbers, in nM.

smi=CC[C@H]1OC(=O)[C@H](C)[C@@H](O[C@H]2C[C@@](C)(OC)[C@@H](O)[C@H](C)O2)[C@H](C)[C@@H](O[C@@H]2O[C@H](C)C[C@H](N(C)Cc3cccc(C)n3)[C@H]2O)[C@](C)(OC)C[C@@H](C)C(=O)[C@H](C)[C@H]2N(CCc3ccc(F)c(Cl)c3)C(=O)O[C@]12C assay_result=1.91
smi=CC[C@H]1OC(=O)[C@H](C)[C@@H](O[C@H]2C[C@@](C)(OC)[C@@H](O)[C@H](C)O2)[C@H](C)[C@@H](O[C@@H]2O[C@H](C)C[C@H](N(C)CC3CCC3)[C@H]2O)[C@](C)(OC)C[C@@H](C)C(=O)[C@H](C)[C@H]2N(CCc3ccc(Cl)cc3)C(=O)O[C@]12C assay_result=1.58

Here is the next item to consider.
Challenge: So what's the measured Ki for this one? CCCN(C)[C@H]1C[C@@H](C)O[C@@H](O[C@@H]2[C@@H](C)[C@H](O[C@H]3C[C@@](C)(OC)[C@@H](O)[C@H](C)O3)[C@@H](C)C(=O)O[C@H](CC)[C@@]3(C)OC(=O)N(CCNc4ccc(Cl)cc4)[C@@H]3[C@@H](C)C(=O)[C@H](C)C[C@@]2(C)OC)[C@@H]1O
Response given: 2.69

* * *

- target under test: LHRH rat pituitary receptor (Rattus norvegicus, UniProt P30969)
- Construct: from tissue; host or cells: rat pituitary
- assay info: LHRH rat pituitary receptor binding (pKI)
- condition label: negative logarithm of the equilibrium dissociation constants, Table 1, read-out: receptor binding affinity (pKI) (converted)
- Method: Representative compounds of the present invention were evaluated in in vitro tests for LHRH rat pituitary receptor binding (pKI) and for LH inhibition from rat pituitary cells for antagonist potency (pA2). The tests employed the methods detailed in F. Haviv, et al. J. Med. Chem., 32: 2340-2344 (1989). The receptor binding affinity (pKI) is the negative logarithm of the equilibrium dissociation constants.
endpoint: Ki (nM)
Answers are plain numbers, in nM.

Previously resolved entries follow.
smi=CCCN(C)[C@H]1C[C@@H](C)O[C@@H](O[C@@H]2[C@@H](C)[C@H](O[C@H]3C[C@@](C)(OC)[C@@H](O)[C@H](C)O3)[C@@H](C)C(=O)O[C@H](CC)[C@@]3(C)OC(=O)N(CCc4ccc(Cl)c(F)c4)[C@@H]3[C@@H](C)C(=O)[C@H](C)C[C@@]2(C)OC)[C@@H]1O target_under_test="LHRH rat pituitary receptor (Rattus norvegicus, UniProt P30969)" measurement_units=nM assay_result=3.98
smi=CC[C@H]1OC(=O)[C@H](C)[C@@H](O[C@H]2C[C@@](C)(OC)[C@@H](O)[C@H](C)O2)[C@H](C)[C@@H](O[C@@H]2O[C@H](C)C[C@H](N(C)Cc3ccc(N(C)C)c4ccccc34)[C@H]2O)[C@](C)(OC)C[C@@H](C)C(=O)[C@H](C)[C@H]2N(CCc3ccc(Cl)c(Cl)c3)C(=O)O[C@]12C target_under_test="LHRH rat pituitary receptor (Rattus norvegicus, UniProt P30969)" measurement_units=nM assay_result=3.16
smi=CC[C@H]1OC(=O)[C@H](C)[C@@H](O[C@H]2C[C@@](C)(OC)[C@@H](O)[C@H](C)O2)[C@H](C)[C@@H](O[C@@H]2O[C@H](C)C[C@H](N(C)C(C)C)[C@H]2O)[C@](C)(OC)C[C@@H](C)C(=O)[C@H](C)[C@H]2N(CCc3ccc(Cl)c(F)c3)C(=O)O[C@]12C target_under_test="LHRH rat pituitary receptor (Rattus norvegicus, UniProt P30969)" measurement_units=nM assay_result=4.27
smi=CC[C@H]1OC(=O)[C@H](C)[C@@H](O[C@H]2C[C@@](C)(OC)[C@@H](O)[C@H](C)O2)[C@H](C)[C@@H](O[C@@H]2O[C@H](C)C[C@H](N(C)C3CCCC3)[C@H]2O)[C@](C)(OC)C[C@@H](C)C(=O)[C@H](C)[C@H]2N(CCc3ccc(Cl)cc3)C(=O)O[C@]12C target_under_test="LHRH rat pituitary receptor (Rattus norvegicus, UniProt P30969)" measurement_units=nM assay_result=6.76
smi=CC[C@H]1OC(=O)[C@H](C)[C@@H](O[C@H]2C[C@@](C)(OC)[C@@H](O)[C@H](C)O2)[C@H](C)[C@@H](O[C@@H]2O[C@H](C)C[C@H](N(C)Cc3ccc(CO)o3)[C@H]2O)[C@](C)(OC)C[C@@H](C)C(=O)[C@H](C)[C@H]2N(CCc3ccc(Cl)c(Cl)c3)C(=O)O[C@]12C target_under_test="LHRH rat pituitary receptor (Rattus norvegicus, UniProt P30969)" measurement_units=nM assay_result=1.55

Respectfully, I request Ki for each entry included below.
1. CC[C@H]1OC(=O)[C@H](C)[C@@H](O[C@H]2C[C@@](C)(OC)[C@@H](O)[C@H](C)O2)[C@H](C)[C@@H](O[C@@H]2O[C@H](C)C[C@H](N(C)CCC(C)C)[C@H]2O)[C@](C)(OC)C[C@@H](C)C(=O)[C@H](C)[C@H]2N(CCc3ccc(Cl)c(Cl)c3)C(=O)O[C@]12C
2. CC[C@H]1OC(=O)[C@H](C)[C@@H](O[C@H]2C[C@@](C)(OC)[C@@H](O)[C@H](C)O2)[C@H](C)[C@@H](O[C@@H]2O[C@H](C)C[C@H](N(C)C3CCCC3)[C@H]2O)[C@](C)(OC)C[C@@H](C)C(=O)[C@H](C)[C@H]2N(CC3(c4ccc(Cl)c(Cl)c4)CC3)C(=O)O[C@]12C

Response given:
1: 8.13; 2: 2.09
